system: MS2 coat protein; experiment: apparent KD of MS2 coat protein; higher = weaker reporter binding; settings: Eterna round: R107; input ligand: theophylline 2 mM
Rule: apparent KD of MS2 coat protein under 20 nM gives F, otherwise T.

Input line: Is apparent KD of MS2 coat protein at least 20 nM? Consider UUGCCCAGUACGGCCGCCACUGUGUGCAGGGAGCCCAGGUCCACAUGAGGAUCACCCAUGUACAACAGGACCGGGUACUUGCAAU [Usdizaqu]
Output line: F

Input line: Is apparent KD of MS2 coat protein at least 20 nM? Consider UGGGUUGGACCAGGAAAUGGUCUGACUCACCGAGGACCGGUACGGCCGCCACUCGUAGGUACAUGAGGAUCACCCAUGUCGGUGG [#1 Same State - Tryptophan A Attempt #11 (HarryS)]
Output line: T

Input line: Is apparent KD of MS2 coat protein at least 20 nM? Consider CCUGAUGAGUCGGCCGCCACUCCAGUUGUAUUACAGGUUUUCGUAGACAUGAGGAUCACCCAUGUGAGGACCGGGACACACACAG [theeternabot_exclusion_MS2_Trp_B_21]
Output line: F

Input line: Is apparent KD of MS2 coat protein at least 20 nM? Consider AGUUCCAGGUCGGCCGCCACUGGCGUGGCCGGUCCUCGGACUUACAUGAGGAUCACCCAUGUGAACAGGACCGGGACCGCAUGGG [Exclusion Tryptophan B GF 25]
Output line: T

Input line: Is apparent KD of MS2 coat protein at least 20 nM? Consider GCUGCUUUGGGAAGGAGCGCUGCGGUAUUGUGGCGGACAUGAGGAUCACCCAUGUGCCUGCAGCAGGUAGGUCGCUUAGGGCAGC [EAP NP+V+V2 #17]
Output line: T

* * *

test system: MS2 coat protein; experiment: apparent KD of MS2 coat protein; higher = weaker reporter binding; settings: Eterna round: R107; input ligand: tryptophan 2.4 mM
Rule: apparent KD of MS2 coat protein under 30 nM gives no, otherwise yes.

Input line: Is apparent KD of MS2 coat protein at least 30 nM? Consider AAACGUUGCUCAGAUACCAGACAUGAGGAUCACCCAUGUACCAAGGUAACCGAAAGGCAUGUCCCUUGGCAGCUGAGCAACGAAA [MAT - Exclusion Theophlline B - Mod of Eli - D16]
Output line: no

Input line: Is apparent KD of MS2 coat protein at least 30 nM? Consider AUUCAGAGAUCACAUGAGGAUCACCCAUGUCGAGGACCGGUACGGCCGCCACUCGCGGCGGUGAAAAUAGAUACAAAGUAUCUAU [Ex_TrypA - Vienna approves #2]
Output line: yes

Input line: Is apparent KD of MS2 coat protein at least 30 nM? Consider ACUAGUUGUGCAGAUACCAGAUAUGAGGAUCACCCAUAUUUGGGAUGUUCGCAUCUUCCUGUCCCUUGGCAGCUGUACAUCUAGA [Omei Theo B Exc v7]
Output line: yes

Input line: Is apparent KD of MS2 coat protein at least 30 nM? Consider GCACAAGAUGGAAGGAGCGCUGGAAAAGGUCACAUGAGGAUCACCCAUGUUCUCCGAACCGAGCAGGUAGGUCGCUAUCUUGUGC [#09 Same State - Arginine B]
Output line: yes

Input line: Is apparent KD of MS2 coat protein at least 30 nM? Consider GUCUCAGACCGAGAUACCAGCUGGGUUUCCCACAUGAGGAUCACCCAUGUAUUCAGAUUAAGCCCUUGGCAGCUCAUCUAGGUCC [theeternabot_sameState_MS2_Theo_B_44]
Output line: no

Input line: Is apparent KD of MS2 coat protein at least 30 nM? Consider ACGUAAUGCAGAAGGAGCGUCUGAUUUUAACAUGAGGAUCACCCAUGUAAUAUUUAUGGUAGACAGGUAGGUCGCUGAAGUACGA [JR_ExcArginiB_Sub002]
Output line: no

Input line: Is apparent KD of MS2 coat protein at least 30 nM? Consider GGACUAACCUGAAGGAGCGGCGCGCAGAAACUGCAAAUUCCUCCACACGAGGAUCACCCGUGUCAGGUAGGUCGCAGGUUAGUCG [ArgBX 28]
Output line: no

Input line: Is apparent KD of MS2 coat protein at least 30 nM? Consider `UGUAUGUGAUCUGAUACCAGUCCAACUGGUAAAGCAUGAGGAACACCCAUGCAAAAUUGGGACCCUUGGCAGCAGAUCGCAUACU`
Output line: yes

Input line: Is apparent KD of MS2 coat protein at least 30 nM? Consider GGCACGUACGGAAGGAGCGACUGUUCAACGUGGGUACAUGAGGAUCACCCAUGUCUCCGCAGUCAGGUAGGUCGCCGUACGUGCC [EAB NP+V+V2 #20]
Output line: no

Input line: Is apparent KD of MS2 coat protein at least 30 nM? Consider GGGACACCGGGAAGGAGCGCAUCCAAACCACACAUGAGGAUCACCCAUGUAUAAAUAUGCAUGCAGGUAGGUCGCCCGAUGUCUC [Anrearradi]
Output line: yes

Input line: Is apparent KD of MS2 coat protein at least 30 nM? Consider AUGUCGUUGAAUAUAGCGGCUUGGAGUGAUACCAGAAUGAUCUAAUUCCCUUGGCAGCAUUACAUGAGGAUCACCCAUGUUCCAG [SSTheo A #22]
Output line: yes
